Catalogue of activity coefficient values
methodNotes: activity coefficient (dimensionless); of the first substance listed, at infinite dilution; xn = mol fraction of the nth substance listed
conditionParameters: 333.25 K; Liquid; Chromatography; x1 = 0
measuredQuantity: activity coefficient

| molecule | measuredQuantity | result |
| --- | --- | --- |
| CCCCCC=O [hexanal] + CCCC[N+](C)(C)C.O=S(=O)([N-]S(=O)(=O)C(F)(F)F)C(F)(F)F | activity coefficient | 1.9 |
| C=CCCCCCCCC [1-decene] + CCCC[N+](C)(C)C.O=S(=O)([N-]S(=O)(=O)C(F)(F)F)C(F)(F)F | activity coefficient | 39 |
| C=CCCCCCCC [1-nonene] + CCCC[N+](C)(C)C.O=S(=O)([N-]S(=O)(=O)C(F)(F)F)C(F)(F)F | activity coefficient | 26.7 |
| CCCCCCCCCC [decane] + CCCC[N+](C)(C)C.O=S(=O)([N-]S(=O)(=O)C(F)(F)F)C(F)(F)F | activity coefficient | 67.2 |

====

methodNotes: activity coefficient (dimensionless); of the first substance listed, at infinite dilution; xn = mol fraction of the nth substance listed
conditionParameters: 354.05 K; Liquid; Chromatography; x1 = 0
Sorting guide: entries reporting activity coefficient beneath 30 go in the Criterion met pile, the rest go in the Criterion not met pile.

| compound | answerLabel |
| --- | --- |
| C=CCCCCCCCC [1-decene] + CCCC[N+](C)(C)C.O=S(=O)([N-]S(=O)(=O)C(F)(F)F)C(F)(F)F | Criterion not met |
| CCCCCCCCCC [decane] + CCCC[N+](C)(C)C.O=S(=O)([N-]S(=O)(=O)C(F)(F)F)C(F)(F)F | Criterion not met |
| C=CCCCCCCC [1-nonene] + CCCC[N+](C)(C)C.O=S(=O)([N-]S(=O)(=O)C(F)(F)F)C(F)(F)F | Criterion met |
| CCC(C)(C)O [2-methylbutan-2-ol] + CCCC[N+](C)(C)C.O=S(=O)([N-]S(=O)(=O)C(F)(F)F)C(F)(F)F | Criterion met |
| C=CCCCCCC [oct-1-ene] + CCCC[N+](C)(C)C.O=S(=O)([N-]S(=O)(=O)C(F)(F)F)C(F)(F)F | Criterion met |
| CCCCCCCCCCCC [dodecane] + CCCC[N+](C)(C)C.O=S(=O)([N-]S(=O)(=O)C(F)(F)F)C(F)(F)F | Criterion not met |
| CCCCCc1ccccc1 [pentylbenzene] + CCCC[N+](C)(C)C.O=S(=O)([N-]S(=O)(=O)C(F)(F)F)C(F)(F)F | Criterion met |

====

In this section we review reported activity coefficient values for a set of compounds.
methodNotes: activity coefficient (dimensionless); of the first substance listed, at infinite dilution; xn = mol fraction of the nth substance listed
conditionParameters: 354.15 K; Liquid; Chromatography; x1 = 0

| compound | activity coefficient |
| --- | --- |
| CCCC=O [butanal] + CCCC[N+](C)(C)C.O=S(=O)([N-]S(=O)(=O)C(F)(F)F)C(F)(F)F | 0.76 |
| CCCCCCC=O [heptanal] + CCCC[N+](C)(C)C.O=S(=O)([N-]S(=O)(=O)C(F)(F)F)C(F)(F)F | 1.84 |
| CCc1ccccc1 [ethylbenzene] + CCCC[N+](C)(C)C.O=S(=O)([N-]S(=O)(=O)C(F)(F)F)C(F)(F)F | 2.6 |
| C1=CCCC=C1 [1,3-cyclohexadiene] + CCCC[N+](C)(C)C.O=S(=O)([N-]S(=O)(=O)C(F)(F)F)C(F)(F)F | 2.91 |
| CCCCC=O [pentanal] + CCCC[N+](C)(C)C.O=S(=O)([N-]S(=O)(=O)C(F)(F)F)C(F)(F)F | 1.46 |
| CCCCCC=O [hexanal] + CCCC[N+](C)(C)C.O=S(=O)([N-]S(=O)(=O)C(F)(F)F)C(F)(F)F | 1.85 |
| CN1CCCC1=O [N-methylpyrrolidone] + CCCC[N+](C)(C)C.O=S(=O)([N-]S(=O)(=O)C(F)(F)F)C(F)(F)F | 36.5 |
| C1=CCCCC1 [cyclohexene] + CCCC[N+](C)(C)C.O=S(=O)([N-]S(=O)(=O)C(F)(F)F)C(F)(F)F | 5.31 |
